- Experimental target: T1, IGF-1R, insulin-like growth factor 1 receptor (human, UniProt P08069 31-1367)
- T1 construct: On IGF-IR transfected 3T3 cells (hIGF-1R-3T3) in cell ELISA, or from their extracts in pull-downs (detected through the beta subunit); The entry is the precursor; the processing into alpha and beta subunits is not described; also called IGF-IR; IGF-1 receptor
- T1 sequence (P08069 31-1367 limits assumed): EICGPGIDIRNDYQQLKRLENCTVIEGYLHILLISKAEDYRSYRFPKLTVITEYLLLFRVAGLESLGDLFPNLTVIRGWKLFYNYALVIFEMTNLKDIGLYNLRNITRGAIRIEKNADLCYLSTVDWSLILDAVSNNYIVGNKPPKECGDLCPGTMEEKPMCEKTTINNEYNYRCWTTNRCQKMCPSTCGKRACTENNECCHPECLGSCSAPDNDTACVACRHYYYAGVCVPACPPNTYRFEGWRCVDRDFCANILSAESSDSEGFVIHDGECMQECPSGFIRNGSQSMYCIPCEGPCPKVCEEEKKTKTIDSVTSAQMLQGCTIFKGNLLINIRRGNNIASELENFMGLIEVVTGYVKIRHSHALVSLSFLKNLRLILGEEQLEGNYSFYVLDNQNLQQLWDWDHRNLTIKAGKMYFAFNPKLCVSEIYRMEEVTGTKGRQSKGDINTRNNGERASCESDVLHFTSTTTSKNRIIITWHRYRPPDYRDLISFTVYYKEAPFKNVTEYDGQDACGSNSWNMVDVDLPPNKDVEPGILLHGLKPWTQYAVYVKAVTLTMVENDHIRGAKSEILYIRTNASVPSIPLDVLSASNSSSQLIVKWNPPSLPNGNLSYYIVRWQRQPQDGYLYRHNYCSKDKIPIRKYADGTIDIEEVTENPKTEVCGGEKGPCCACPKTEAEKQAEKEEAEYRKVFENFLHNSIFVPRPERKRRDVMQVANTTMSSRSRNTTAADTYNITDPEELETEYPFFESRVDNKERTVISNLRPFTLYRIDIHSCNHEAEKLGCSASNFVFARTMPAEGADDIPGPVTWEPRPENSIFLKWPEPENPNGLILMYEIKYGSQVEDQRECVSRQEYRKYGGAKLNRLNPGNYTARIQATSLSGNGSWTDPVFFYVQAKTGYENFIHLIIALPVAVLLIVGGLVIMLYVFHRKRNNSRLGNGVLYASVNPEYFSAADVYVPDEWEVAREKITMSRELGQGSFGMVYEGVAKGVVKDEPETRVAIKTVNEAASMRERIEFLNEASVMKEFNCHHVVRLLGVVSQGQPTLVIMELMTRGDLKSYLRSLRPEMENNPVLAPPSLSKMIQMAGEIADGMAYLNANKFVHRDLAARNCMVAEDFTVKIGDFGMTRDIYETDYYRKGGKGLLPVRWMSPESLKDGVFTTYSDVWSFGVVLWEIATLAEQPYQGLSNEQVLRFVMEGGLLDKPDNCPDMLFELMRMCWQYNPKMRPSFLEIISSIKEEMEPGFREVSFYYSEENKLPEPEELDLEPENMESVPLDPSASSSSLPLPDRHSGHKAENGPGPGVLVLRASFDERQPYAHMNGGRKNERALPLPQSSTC
- Method: saturation binding to IGF-IR/3T3 cells, herstatin ELISA, nonlinear regression (FIG. 5B)
Property name: Kd (nM)
I only need the number, in nM, no unit after it.

Indicate its recorded Kd; the binder in question is RBD Int8 polypeptide (intron 8-encoded receptor binding domain of herstatin, expressed as a bacterial peptide) (Purified from BL-21 bacteria; also called Int8 RBD polypeptide; Int8 peptide; not shown: pET 30 vector-encoded tags (His tag used for nickel purification, S-protein tag used for immobilisation)) GTHSLPPRPAAVPVPLRMQPGPAHPVLSFLRPSWDLVSAFYSLPLAPLSPTSVPISPVSVGRGPDPDAHVAVDLSRYEG
70
